Test system: PC-14
test_details: relative viability (nuclei count vs DMSO), 5 days (fraction); higher = more cells survive
cond: first compound 158.11 µM
In plain terms, low relative viability, meaning strictly below 0.1, gives class 1, and everything else gives class 0.

| compound | class_label |
| --- | --- |
| O=C(O)CCCCC(CCSCc1ccccc1)SCc1ccccc1 (stereo not drawn) [CPI-613] + CC(=O)Nc1cccc(-n2c(=O)n(C3CC3)c(=O)c3c(Nc4ccc(I)cc4F)n(C)c(=O)c(C)c32)c1 [Trametinib] (partner 0.02 µM) | class 0 |

Qu. Check if relative viability falls below 0.1 for O=C(O)CCCCC(CCSCc1ccccc1)SCc1ccccc1 (stereo not drawn) [CPI-613] + O=C(c1cc(Cc2n[nH]c(=O)c3ccccc23)ccc1F)N1CCN(C(=O)C2CC2)CC1 [Olaparib] (partner 8 µM) .
Ans. class 1

Qu. Check if relative viability falls below 0.1 for O=C(O)CCCCC(CCSCc1ccccc1)SCc1ccccc1 (stereo not drawn) [CPI-613] + CCNC(=O)c1noc(-c2cc(C(C)C)c(O)cc2O)c1-c1ccc(CN2CCOCC2)cc1 [Luminespib] (partner 0.01 µM) .
Ans. class 0

Qu. Check if relative viability falls below 0.1 for O=C(O)CCCCC(CCSCc1ccccc1)SCc1ccccc1 (stereo not drawn) [CPI-613] + CC(C)C[C@H](NC(=O)[C@H](Cc1ccccc1)NC(=O)c1cnccn1)B(O)O [Bortezomib] (partner 0.002 µM) .
Ans. class 0

Qu. Check if relative viability falls below 0.1 for O=C(O)CCCCC(CCSCc1ccccc1)SCc1ccccc1 (stereo not drawn) [CPI-613] + N=C(N)NC(=N)NCCc1ccccc1 [Phenformin] (partner 250 µM) .
Ans. class 0

Qu. Check if relative viability falls below 0.1 for O=C(O)CCCCC(CCSCc1ccccc1)SCc1ccccc1 (stereo not drawn) [CPI-613] + CC(=O)c1c(C)c2cnc(Nc3ccc(N4CCNCC4)cn3)nc2n(C2CCCC2)c1=O [Palbociclib] (partner 0.5 µM) .
Ans. class 1

Qu. Check if relative viability falls below 0.1 for O=C(O)CCCCC(CCSCc1ccccc1)SCc1ccccc1 (stereo not drawn) [CPI-613] + Cc1nc(Nc2ncc(C(=O)Nc3c(C)cccc3Cl)s2)cc(N2CCN(CCO)CC2)n1 [Dasatinib] (partner 0.075 µM) .
Ans. class 1

Qu. Check if relative viability falls below 0.1 for O=C(O)CCCCC(CCSCc1ccccc1)SCc1ccccc1 (stereo not drawn) [CPI-613] + Nc1ncn([C@H]2C[C@H](O)[C@@H](CO)O2)c(=O)n1 [Decitabine] (partner 2 µM) .
Ans. class 0

Cited source: the supplement of paper PMC10307832
